Test system: Target C mRNA
Test: Splicing RT-qPCR gene panel, Target C canonical junction (CJ) mRNA
Type: cell-based, human
Details: Homo sapiens, Tables 4A/4B, read-out: Target C (IC50, decrease in CJ mRNA, gene panel)
Method: Compounds described herein were used to modulate RNA transcript abundance in cells. The expression of a target mRNA was measured by detecting the formation of an exon-exon junction in the canonical transcript (CJ). A compound mediated exon-inclusion event was detected by observing an increase in formation of a new junction with an alternative exon (AJ). Real-time qPCR assays were used to detect these splicing switches and interrogate the potency of various compounds towards different target genes. […]
pIC50: −log10 of the molar value. Structures can show the parent of a compound that is named as a salt.
experimental-endpoint: pIC50

**Q:** Entry Cc1cn2cc(NC(=O)c3ccc(N4CCC(NC5CC5)CC4)c4csnc34)cc(F)c2n1 , system Target C mRNA: what pIC50 was measured?
**A:** 6.00 to 7.00

**Q:** Entry CCn1cc2c(N3CCC(NC)C3)ccc(C(=O)Nc3cc(F)c4nc(C)cn4c3)c2n1 (stereo not shown) , system Target C mRNA: what pIC50 was measured?
**A:** < 5.00

**Q:** Entry Cc1cn2nc(NC(=O)c3ccc(N4CCNCC4)c4cn(C)nc34)cc2c(C)n1 , system Target C mRNA: what pIC50 was measured?
**A:** < 5.00

**Q:** Entry Cc1cn2cc(NC(=O)c3ccc(N4CCN5CCCC5C4)c4cn(C)nc34)cc(F)c2n1 (stereo not shown) , system Target C mRNA: what pIC50 was measured?
**A:** 6.00 to 7.00

**Q:** Entry CCn1cc2c(N3CCN(C)CC3)ccc(C(=O)Nc3cc(F)c4nc(CO)oc4c3)c2n1 , system Target C mRNA: what pIC50 was measured?
**A:** 5.00 to 6.00

**Q:** Entry Cc1nc2c(F)cc(NC(=O)c3ccc(N4CCNCC4)c4cn(C)nc34)cc2s1 , system Target C mRNA: what pIC50 was measured?
**A:** < 5.00

**Q:** Entry Cc1nc2c(F)cc(NC(=O)c3ccc(N4CCNCC4)c4cn(C)nc34)cn2n1 , system Target C mRNA: what pIC50 was measured?
**A:** < 5.00

**Q:** Entry Cc1cn2cc(NC(=O)c3ccc(N4C[C@H]5CC[C@@H](C4)N5)c4cc(C)oc34)cc(F)c2n1 , system Target C mRNA: what pIC50 was measured?
**A:** < 5.00

**Q:** Entry Cc1cn2cc(NC(=O)c3ccc(N4CCNCC4)c4cn(C)nc34)cc(F)c2n1 , system Target C mRNA: what pIC50 was measured?
**A:** 6.00 to 7.00

**Q:** Entry Cc1cn2cc(NC(=O)c3ccc(N(C)C4CC(C)(C)NC(C)(C)C4)c4cn(C)nc34)cc(F)c2n1 , system Target C mRNA: what pIC50 was measured?
**A:** < 5.00

**Q:** Entry Cn1cc2cc(NC(=O)c3ccc(N4CCNCC4)c4cn(C)nc34)cc(F)c2n1 [Compound 319, hydrochloride] , system Target C mRNA: what pIC50 was measured?
**A:** 5.00 to 6.00

**Q:** Entry Cc1cn2cc(NC(=O)c3ccc(N4CCNCC4)c4cc(C)oc34)c(C)cc2n1 , system Target C mRNA: what pIC50 was measured?
**A:** < 5.00

**Q:** Entry CCNC1CCN(c2ccc(C(=O)Nc3cc(F)c4nc(C)cn4c3)c3nc(CC)cn23)C1 (stereo not shown) , system Target C mRNA: what pIC50 was measured?
**A:** 5.00 to 6.00

**Q:** Entry CCn1cc2c(N3CCNCC3)ncc(C(=O)Nc3cc(F)c4nc(C)cn4c3)c2n1 , system Target C mRNA: what pIC50 was measured?
**A:** < 5.00

**Q:** Entry CCn1cc2c(N3CCC(NC4CC4)CC3)ccc(C(=O)Nc3cc(F)c4nc(C)cn4c3)c2n1 , system Target C mRNA: what pIC50 was measured?
**A:** < 5.00

**Q:** Entry Cc1cn2cc(NC(=O)c3ccc(N4CC5(CN(C)C5)C4)c4cn(C)nc34)cc(F)c2n1 , system Target C mRNA: what pIC50 was measured?
**A:** 5.00 to 6.00

Data credit: patent US20250154169A1
